- Test system: panel of HIV-1 ENV-pseudoviruses (subtype A, A/D, A2/D, A/E, A/G, B, C and D)
- TEST_METHOD_NOTES: microbe, parasite or virus in culture
- Type: cell-based
- APPLIED_CONDITIONS: subtype A, ENV BG505-T332N; read-out: IC50 (μM) ± S.D.
# IC50 per entry
PROPERTY_MEASURED: IC50 (µM)

| COMPOUND | DATA_VALUE |
| --- | --- |
| Cc1nc(C(NC(=O)c2ccc(-c3ccc(Cl)cc3)[nH]2)C2CCCCN2)sc1CO (centres unmarked) | 2.4 |
| Cc1nc(C(CN)NC(=O)c2ccc(-c3ccc(Cl)cc3)[nH]2)sc1CO (single isomer, unassigned) | 0.33 |

----------
- Tested on: panel of HIV-1 ENV-pseudoviruses (subtype A, A/D, A2/D, A/E, A/G, B, C and D)
- TEST_METHOD_NOTES: microbe, parasite or virus in culture
- Format: cell-based
- APPLIED_CONDITIONS: Human immunodeficiency virus 1, TZM-bl, read-out: IC50 (μM) ± S.D., subtype B, NIH # 11038, ENV pCAAN5342 clone A2

| COMPOUND | IC50 |
| --- | --- |
| Cc1nc(C(NC(=O)c2ccc(-c3ccc(Cl)cc3)[nH]2)C2CCCCN2)sc1CO (single isomer, unassigned) | 0.6 µM |

----------
- System: panel of HIV-1 ENV-pseudoviruses (subtype A, A/D, A2/D, A/E, A/G, B, C and D)
- TEST_METHOD_NOTES: microbe, parasite or virus in culture
- Format: cell-based
- APPLIED_CONDITIONS: read-out: IC50 (μM) ± S.D.; subtype B, NIH # 11058, ENV SC422661.8
PROPERTY_MEASURED: IC50 (µM)

| MOLECULE | PROPERTY_MEASURED | UOM | DATA_VALUE |
| --- | --- | --- | --- |
| Cc1nc(C(NC(=O)c2ccc(-c3ccc(Cl)cc3)[nH]2)C2CCCCN2)sc1CO (stereo not shown) | IC50 | µM | 0.6 |
